subject of test: T1, human MSR1 with a C-terminal Myc tag expressed on HEK293.Myc.hMSR1 cells (human, UniProt P21757 1-451)
T1 sequence (looked up): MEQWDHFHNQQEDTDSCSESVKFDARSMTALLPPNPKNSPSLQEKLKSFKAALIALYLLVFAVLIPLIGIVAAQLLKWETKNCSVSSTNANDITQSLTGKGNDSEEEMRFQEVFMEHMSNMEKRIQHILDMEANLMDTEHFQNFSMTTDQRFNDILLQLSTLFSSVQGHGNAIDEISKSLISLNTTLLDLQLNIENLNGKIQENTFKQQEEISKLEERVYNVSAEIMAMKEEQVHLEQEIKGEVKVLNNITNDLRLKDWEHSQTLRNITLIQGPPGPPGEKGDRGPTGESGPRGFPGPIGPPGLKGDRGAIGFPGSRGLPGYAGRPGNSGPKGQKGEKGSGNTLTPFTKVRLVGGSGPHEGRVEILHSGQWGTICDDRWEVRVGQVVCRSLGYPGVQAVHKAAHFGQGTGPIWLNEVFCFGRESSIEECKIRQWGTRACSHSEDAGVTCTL
method notes: cell-based or functional assay
Property: IC50 of inhibition of Dil-Oxidized LDL uptake; scope: individual binders
// note: answer is a bare numeric in nM

binder	test result
H1H21234N (antibody, V domains shown) VH: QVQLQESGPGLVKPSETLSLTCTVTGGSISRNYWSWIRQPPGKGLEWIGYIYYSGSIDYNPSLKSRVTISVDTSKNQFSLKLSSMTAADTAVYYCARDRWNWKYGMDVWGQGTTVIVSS VL: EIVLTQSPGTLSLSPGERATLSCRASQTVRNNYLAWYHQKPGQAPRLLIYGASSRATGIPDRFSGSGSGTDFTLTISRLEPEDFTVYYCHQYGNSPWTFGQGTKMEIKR	4.3

Next, consider the following binder.
**Q:** Reported IC50 of inhibition of Dil-Oxidized LDL uptake, binder H2bM21234N (antibody, V domains shown) VH: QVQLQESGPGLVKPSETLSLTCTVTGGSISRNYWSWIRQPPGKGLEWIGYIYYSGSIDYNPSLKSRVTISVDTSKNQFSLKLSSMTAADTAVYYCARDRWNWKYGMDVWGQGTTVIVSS VL: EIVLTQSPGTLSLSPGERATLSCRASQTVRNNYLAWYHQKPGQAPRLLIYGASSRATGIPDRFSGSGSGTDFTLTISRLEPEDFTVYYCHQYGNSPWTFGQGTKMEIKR : ____
**A:** 4.5
